- Test system: U-251
- ASSAY: NCI tumour cell line growth inhibition, 48 h
Active and inactive are the calls of the source. Cut-off read from the data, not from the text of the source: active = GI50 up to about 1.1 µM and inactive = higher.
Answer each item with its documented GI50.

Give the measured GI50 of CCCC(=O)OCC1OC(n2cc(F)c(=O)[nH]c2=O)CC1O (stereo unspecified) . 1.79 µM (inactive)

// lookup GI50 for COc1cc(C2SC(=N)Nc3c2c(C)nn3C(=O)c2ccc(Cl)cc2)cc(OC)c1OC (stereo unspecified) > 10 µM (inactive)

Recorded GI50 of CC(C)OC(=O)C1Cc2c([nH]c3ccccc23)C(c2ccccc2)N1 (stereo unspecified) , please. > 100 µM (inactive)

Given CCOC(=O)CC1=CSC2=NCCN12 , state its recorded GI50. > 100 µM (inactive)

Requested field: GI50. Item: O=C[C@@H](CO)O[C@H](C=O)n1cnc2c(=O)nc[nH]c21 748 µM (inactive)

Entry CCOC(=O)c1ccc(-c2cc(C)no2)[nH]1 : reported GI50 = ? 98.4 µM (inactive)

---

Would you kindly list GI50 for each of these compounds?
- System: SN12C
- ASSAY: NCI tumour cell line growth inhibition, 48 h
Calls of active or inactive are those of the source. Cut-off read from the data, not from the text of the source: active = GI50 up to about 1.1 µM and inactive = higher.

For COC1(OC)c2occc2C(=N)c2ccc(=O)oc21 , what is its reported GI50? > 100 µM (inactive)

So what does the record say about GI50 for Nc1nc(Cl)cc(/N=N\c2ccccc2)n1 ? 43 µM (inactive)

Can you share its GI50? I mean this compound: Cc1ccc(-c2c3c(n(C4OC(CO)C(O)C(O)C4O)c(=S)c2C#N)CC(C)(C)CC3=O)cc1 (stereo unspecified) > 100 µM (inactive)

If you can, please state the reported GI50 value of CC1OC(n2cc(C(F)(F)F)c(=O)[nH]c2=O)C=CC1=O (stereo unspecified) . 23.3 µM (inactive)

May I ask what GI50 has been recorded for CCC[C@H]1C(=O)N=C(N)N1C(=O)OCc1ccccc1 ? > 100 µM (inactive)

What GI50 value was documented for this compound, CC(C)=CCc1c(O)cc(O)c2c1OC(c1ccc(O)cc1)C(O)C2=O (stereo unspecified) ? 27.7 µM (inactive)

Reported GI50, compound O=C1CC(Br)c2c(Br)sc(Br)c21 (stereo unspecified) : ____ 15.6 µM (inactive)

Would you mind telling me what GI50 value was observed for COc1cc(/C=N/NC(=O)c2c(Cl)c(Cl)c(Cl)c(Cl)c2-c2nc3cc(C(=O)c4ccccc4)ccc3[nH]2)ccc1O ? 36.5 µM (inactive)

What value of GI50 has been recorded for this entry: COC(=O)[C@@H]1C[C@@H](O)CN1C(=O)c1ccc([N+](=O)[O-])cc1[N+](=O)[O-] > 100 µM (inactive)

# get_value(readout='GI50', item= CCOP(=O)(OCC)/C(C#N)=C/c1cnc[nH]1 ) > 100 µM (inactive)

For the compound CC1(C)OC(=O)N(c2ccccc2)C12C=Cc1cccc([N+](=O)[O-])c1O2 (stereo unspecified) , what GI50 is on record? > 100 µM (inactive)

---

- System: RPMI-8226
- ASSAY: NCI tumour cell line growth inhibition, 48 h
The source made the active and inactive calls. Rule as the data show it: active = GI50 up to about 1.1 µM and inactive = higher.
PARAMETER: GI50

Tell me the measured GI50 of COc1ccc(C2OC(c3ccncc3)=NN2C)cc1F (stereo unspecified) , please. > 100 µM (inactive)

Any idea what GI50 was measured for O=c1[nH]c(=O)n(C2OC(CO)C(O)C2O)c2c1CCCC2 (stereo unspecified) ? > 100 µM (inactive)

// lookup GI50 for O=C1NC2CCCCC2N=C1CC(=O)c1ccc(Br)cc1 (stereo unspecified) 2.83 µM (inactive)

Fill in the blank: the reported GI50 of CCCCC/C(=N\c1[nH]nnc1C(N)=O)OCC is ____. > 100 µM (inactive)

Please report the recorded GI50 for CC(=O)OC1CC2OC(Cc3ccccc32)O1 (stereo unspecified) . > 100 µM (inactive)

If you can, please state the reported GI50 value of O=C[C@@H](CO)O[C@H](C=O)n1cnc2c(=O)nc[nH]c21 . 131 µM (inactive)

State the recorded GI50 for this entry: O=C1CC(Br)c2c(Br)sc(Br)c21 (stereo unspecified) 8.04 µM (inactive)

Returns the measured GI50 for the input compound. Input: O=C(Nc1ccccc1)n1cc(-c2ccccn2)c(N2CCOCC2)n1 4.27 µM (inactive)

Reported GI50 for CO/N=C(/C)c1cccc(Nc2nc3ccc(Cl)cc3c3[nH]c4ccccc4c23)c1 : what is it? 3.2 µM (inactive)

Param item = O=C(O)CCCC(=O)Nn1c(Cc2ccc(Cl)cc2)n[nH]c1=O ; retrieve measured GI50. > 100 µM (inactive)

So what does the record say about GI50 for CC(=O)OCC1OC(N2C(=O)NC(=O)C3C=C4CCCCC4=CC32)CC1OC(C)=O (stereo unspecified) ? > 100 µM (inactive)
